Kindly supply the reported solubility values for the records listed here.
assay.protocol: Assessment of solubility: HT solubility in pION buffer, UV spectrophotometry
cond: pION system solution buffer, pH 4.5, pH 4.5, aqueous buffer, kinetic from dmso stock, Solubility (pH 4.5), pH 4.5 buffer, 16-19 h incubation, 1.0% DMSO
Answers are plain numbers, in µg/mL.

Example cases with answers are listed next.
q: Please look up its solubility: Cc1ccc(OCc2ccc(CN3CCOC(CO)C3)cc2C#N)c(-c2csc(N3C[C@H]4CC[C@@H](C3)[C@H]4C(=O)O)n2)c1 (stereo partly shown)
a: 54

q: Please look up its solubility: Cc1cc(C(=O)N2CCCCC2)ccc1COc1ccccc1-c1csc(N2CC3CCC(C2)C3C(=O)O)n1 (stereo not shown)
a: 0.2

Consider the record given below.
q: Please look up its solubility: Cc1cc(CN2CCOCC2)ccc1COc1ccc(Cl)cc1-c1csc(N2CC3CCC(C2)C3C(=O)O)n1 (stereo not shown)
a: 4.7

====

system.name: Recombinant human soluble guanylate cyclase (sGC), alpha 1 / beta 1 subunits, heme-free (Homo sapiens, UniProt Q02108+Q02153)
Construct: histidine tag (C); made in house; host or cells: Sf9 insect cells (baculovirus coinfection)
Sequence (Q02108 whole entry partner): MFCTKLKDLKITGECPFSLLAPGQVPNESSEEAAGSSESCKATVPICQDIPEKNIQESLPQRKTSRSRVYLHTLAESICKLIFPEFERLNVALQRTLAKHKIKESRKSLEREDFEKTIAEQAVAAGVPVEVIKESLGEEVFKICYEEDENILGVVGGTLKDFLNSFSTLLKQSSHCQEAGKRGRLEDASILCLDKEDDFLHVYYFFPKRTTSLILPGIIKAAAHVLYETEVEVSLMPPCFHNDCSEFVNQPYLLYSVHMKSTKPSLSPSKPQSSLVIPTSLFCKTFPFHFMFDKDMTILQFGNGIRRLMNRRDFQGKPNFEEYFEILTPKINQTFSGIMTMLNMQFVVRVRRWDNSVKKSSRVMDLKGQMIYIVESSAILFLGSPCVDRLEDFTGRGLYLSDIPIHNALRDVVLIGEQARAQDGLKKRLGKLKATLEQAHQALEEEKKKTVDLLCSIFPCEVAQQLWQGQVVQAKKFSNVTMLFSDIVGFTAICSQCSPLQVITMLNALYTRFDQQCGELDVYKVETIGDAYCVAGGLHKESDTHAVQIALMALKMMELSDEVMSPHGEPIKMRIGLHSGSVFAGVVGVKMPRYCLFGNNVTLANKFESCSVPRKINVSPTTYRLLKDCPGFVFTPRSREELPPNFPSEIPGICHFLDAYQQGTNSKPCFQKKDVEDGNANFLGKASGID
Sequence (Q02153 whole entry): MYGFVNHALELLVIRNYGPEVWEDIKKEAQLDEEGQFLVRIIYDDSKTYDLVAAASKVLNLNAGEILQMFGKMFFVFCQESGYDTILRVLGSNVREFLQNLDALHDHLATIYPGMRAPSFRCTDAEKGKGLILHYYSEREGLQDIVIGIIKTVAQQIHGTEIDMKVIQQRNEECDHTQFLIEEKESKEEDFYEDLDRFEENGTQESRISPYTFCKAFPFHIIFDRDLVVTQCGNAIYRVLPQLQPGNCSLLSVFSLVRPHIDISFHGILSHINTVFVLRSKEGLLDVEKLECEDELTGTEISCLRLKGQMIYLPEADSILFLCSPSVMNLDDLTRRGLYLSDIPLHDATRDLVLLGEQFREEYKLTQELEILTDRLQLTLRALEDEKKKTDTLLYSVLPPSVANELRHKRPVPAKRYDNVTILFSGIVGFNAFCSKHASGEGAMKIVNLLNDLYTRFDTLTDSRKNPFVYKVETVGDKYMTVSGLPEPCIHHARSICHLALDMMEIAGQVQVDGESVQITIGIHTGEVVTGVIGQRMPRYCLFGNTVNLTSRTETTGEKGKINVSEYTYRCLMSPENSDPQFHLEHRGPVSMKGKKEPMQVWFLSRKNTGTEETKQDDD
assay.protocol: Molecular assay: cGMP formation by heme-free recombinant sGC (CisBio cGMP detection kit)
Type: biochemical
cond: 300 pM heme-free sGC, 37° C., 60 min, cGMP readout; read-out: EC50 nM, Activity of Compounds in Molecular Assay
Kindly supply the reported EC50 values for the records listed here.
Numbers only, in nM.

Example cases with answers are listed next.
q: Please look up its EC50: Cc1cc(CN2CCOCC2)ccc1COc1ccc(Cl)cc1-c1csc(N2CCC(C(=O)O)CC2C)n1 (stereo not shown)
a: 180

q: Please look up its EC50: Cc1cc(CN2CCS(=O)(=O)CC2)ccc1COc1ccccc1-c1csc(N2CCC(C(=O)O)CC2C(F)(F)F)n1 (stereo not shown)
a: 170

q: Please look up its EC50: Cc1cc(CN2CCS(=O)(=O)CC2)ccc1COc1c(C)cccc1-c1csc(N2C3CCC2CC(C(=O)O)C3)n1 (stereo not shown)
a: 80

Further cases:
q: Please look up its EC50: Cc1ccc(OCc2ccc(CNC(C)(C)CO)cc2C)c(-c2csc(N3CCC(C(=O)O)CC3)n2)c1
a: 2000

====

Kindly supply the reported solubility values for the records listed here.
assay.protocol: Assessment of solubility: HT solubility in pION buffer, UV spectrophotometry
cond: pION system solution buffer, pH 7.4, pH 7.4, aqueous buffer, kinetic from dmso stock, Solubility (pH 7.4), pH 7.4 buffer, 16-19 h incubation, 1.0% DMSO

Example cases with answers are listed next.
q: Please look up its solubility: Cc1ccc(OCc2ccc(CN3CCS(=O)(=O)CC3)cc2C)c(-c2csc(N3C[C@H]4C[C@@H](C3)[C@H]4C(=O)O)n2)c1
a: > 58 µg/mL

q: Please look up its solubility: Cc1ccc(OCc2ccc(C(=O)N3CCCCC3)cc2C)c(-c2csc(N3CCC(C(=O)O)C(C(F)(F)F)C3)n2)c1 (stereo not shown)
a: > 60 µg/mL

q: Please look up its solubility: Cc1cc(CN2CCS(=O)(=O)CC2)ccc1COc1ccc(F)cc1-c1csc(N2CCC(C(=O)O)CC2)n1
a: > 57 µg/mL

q: Please look up its solubility: Cc1cc(CN2CCOCC2)ccc1COc1ccccc1-c1csc(N2C3CCC2CC(C(=O)O)C3)n1 (stereo not shown)
a: > 60 µg/mL

q: Please look up its solubility: Cc1ccc(OCc2ccc(C(=O)N(C)CC3CCCCC3)cc2C#N)c(-c2csc(N3CCC(C(=O)O)CC3)n2)c1
a: 14 µg/mL

Below is a list of molecules. For each, state its recorded solubility.
1. Cc1cc(CN2CCOCC2)ccc1COc1c(C)cccc1-c1csc(N2C3CCC2CC(C(=O)O)C3)n1 (stereo not shown)
2. Cc1ccc(OCc2ccc(CN3CCC(F)CC3)cc2C)c(-c2csc(N3CCC(C(=O)O)CC3)n2)c1

a:
1. > 58 µg/mL
2. 38 µg/mL
